Recorded values, source patent US8404708B2.

Molecular target: Recombinant human NK3 (hNK3) receptor (Homo sapiens)
Construct: expressed in transfected cells
Sequence (P29371 1-465): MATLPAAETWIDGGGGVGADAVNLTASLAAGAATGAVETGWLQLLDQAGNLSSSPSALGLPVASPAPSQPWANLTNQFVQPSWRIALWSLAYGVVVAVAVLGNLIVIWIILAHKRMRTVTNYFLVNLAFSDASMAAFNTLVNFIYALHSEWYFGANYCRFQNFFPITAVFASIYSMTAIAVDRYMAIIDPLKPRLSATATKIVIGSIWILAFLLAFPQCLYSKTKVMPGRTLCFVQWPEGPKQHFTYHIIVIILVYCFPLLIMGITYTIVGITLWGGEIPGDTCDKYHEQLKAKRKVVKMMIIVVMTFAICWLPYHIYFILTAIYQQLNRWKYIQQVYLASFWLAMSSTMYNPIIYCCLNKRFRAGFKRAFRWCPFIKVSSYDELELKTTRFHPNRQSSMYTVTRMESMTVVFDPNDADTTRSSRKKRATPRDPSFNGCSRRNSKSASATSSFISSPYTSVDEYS
Experiment: NK3 receptor binding, [3H]SR142801 displacement, membrane preparations
Details: second value of the cell pKi NK1/NK3; hNK3 receptor, [3H]SR142801
Lab note - cut at 6 nM for Ki: Condition met if strictly below, Condition not met if not.

INSERT INTO measurements (molecule, classification) VALUES
  ('Cc1cc(C)cc(C(C)(C)C(=O)N(C)c2cnc(N3C[C@H](O)C[C@H]3CO)cc2-c2ccccc2Cl)c1 [Example 10]', 'Condition met'),
  ('CN(C(=O)C(C)(C)c1cc(C(F)(F)F)cc(C(F)(F)F)c1)c1cnc(N2CCC(O)CC2)cc1-c1ccccc1Cl [Example 51]', 'Condition not met'),
  ('C[C@@H](O)CNc1cc(-c2ccccc2Cl)c(N(C)C(=O)C(C)(C)c2cc(C(F)(F)F)cc(C(F)(F)F)c2)cn1 [Example 73]', 'Condition not met'),
  ('CN(C(=O)C(C)(C)c1cc(C(F)(F)F)cc(C(F)(F)F)c1)c1cnc(N2CC[C@H](O)[C@@H](CO)C2)cc1-c1ccccc1Cl (racemic) [Example 193]', 'Condition not met'),
  ('CN(CC(O)CO)c1cc(-c2ccccc2Cl)c(N(C)C(=O)C(C)(C)c2cc(C(F)(F)F)cc(C(F)(F)F)c2)cn1 (racemic) [Example 58]', 'Condition met'),
  ('CN(C(=O)C(C)(C)c1cc(C(F)(F)F)cc(C(F)(F)F)c1)c1cnc(N2CC[C@@H](O)C2)cc1-c1ccccc1Cl [Example 47]', 'Condition not met');

====

Target: Recombinant human NK3 (hNK3) receptor (Homo sapiens, UniProt P29371)
Construct: expressed in transfected cells
Experiment: NK3 receptor binding, [3H]SR142801 displacement, membrane preparations
Details: second value of the cell pKi NK1/NK3; hNK3 receptor, [3H]SR142801
pKi: −log10 of the molar value.
measure: pKi

INSERT INTO results (compound, number) VALUES
  ('Cc1ccccc1-c1cc(N2CCC[C@@H]2CO)ncc1N(C)C(=O)C(C)(C)c1cc(C(F)(F)F)cc(C(F)(F)F)c1', 8.00),
  ('CCN(CCO)c1cc(-c2ccc(F)cc2)c(N(C)C(=O)C(C)(C)c2cc(C(F)(F)F)cc(C(F)(F)F)c2)cn1', 7.49),
  ('CN(C(=O)C(C)(C)c1cc(C(F)(F)F)cc(C(F)(F)F)c1)c1cnc(N2CC(O)C2)cc1-c1ccccc1Cl', 8.46),
  ('CN(C(=O)C(C)(C)c1cc(C(F)(F)F)cc(C(F)(F)F)c1)c1cnc(N2CC[C@H](O)[C@H]2CO)cc1-c1ccc(Cl)cc1Cl', 8.87),
  ('Cc1ccccc1-c1cc(N(CC(C)O)CC(C)O)ncc1N(C)C(=O)C(C)(C)c1cc(C(F)(F)F)cc(C(F)(F)F)c1 (stereo not drawn)', 7.96),
  ('CN(C(=O)C(C)(C)c1cc(C(F)(F)F)cc(C(F)(F)F)c1)c1cnc(N[C@@H]2CCCC[C@H]2O)cc1-c1ccccc1Cl (racemic)', 7.56),
  ('CN(C(=O)C(C)(C)c1cc(C(F)(F)F)cc(C(F)(F)F)c1)c1cnc(N2CC[C@H](O)[C@H](O)C2)cc1-c1ccccc1Cl (racemic)', 7.59),
  ('CN(C(=O)C(C)(C)c1cc(C(F)(F)F)cc(C(F)(F)F)c1)c1cnc(N[C@H]2CCC[C@@H]2O)cc1-c1ccccc1Cl', 8.39),
  ('CC(=O)NC1CCN(c2cc(-c3ccc(F)cc3C)c(N(C)C(=O)C(C)(C)c3cc(C(F)(F)F)cc(C(F)(F)F)c3)cn2)CC1', 7.79),
  ('COc1cc(Cl)cc(C(C)(C)C(=O)N(C)c2cnc(N3C[C@H](O)C[C@H]3CO)cc2-c2ccccc2C)c1', 8.60),
  ('CC(=O)N[C@H]1CCN(c2cc(-c3ccc(F)cc3C)c(N(C)C(=O)C(C)(C)c3cc(C(F)(F)F)cc(C(F)(F)F)c3)cn2)C1', 7.26),
  ('CCCCCN(CCO)c1cc(-c2ccccc2Cl)c(N(C)C(=O)C(C)(C)c2cc(C(F)(F)F)cc(C(F)(F)F)c2)cn1', 8.21),
  ('CN(C(=O)C(C)(C)c1cc(C(F)(F)F)cc(C(F)(F)F)c1)c1cnc(N2C[C@H](O)C[C@H](O)C2)cc1-c1ccccc1Cl', 8.47),
  ('CN(C(=O)C(C)(C)c1cc(C(F)(F)F)cc(C(F)(F)F)c1)c1cnc(N2CCC[C@H]2CO)cc1-c1ccccc1Cl', 9.08),
  ('CN(C(=O)C(C)(C)c1cc(Cl)cc(OC(F)F)c1)c1cnc(N2CCC[C@H]2CO)cc1-c1ccccc1Cl', 9.08),
  ('CN(C(=O)C(C)(C)c1cc(C(F)(F)F)cc(C(F)(F)F)c1)c1cnc(N2CCC[C@@H]2CO)cc1-c1ccc(Cl)cc1Cl', 7.83),
  ('Cc1cc(F)ccc1-c1cc(N(C)C(CO)CO)ncc1N(C)C(=O)C(C)(C)c1cc(C(F)(F)F)cc(C(F)(F)F)c1', 8.34),
  ('CN(C(=O)C(C)(C)c1cc(F)cc(F)c1)c1cnc(N2C[C@H](O)C[C@H]2CO)cc1-c1ccccc1Cl', 8.31),
  ('CN(C(=O)C(C)(C)c1cc(C(F)(F)F)cc(C(F)(F)F)c1)c1cnc(N2CCC[C@@H]2CO)cc1-c1ccc(Cl)c(Cl)c1', 8.03),
  ('Cc1cc(F)ccc1-c1cc(N2CCC(S(C)(=O)=O)C2)ncc1N(C)C(=O)C(C)(C)c1cc(C(F)(F)F)cc(C(F)(F)F)c1 (racemic)', 8.04),
  ('CN(C(=O)C(C)(C)c1cc(C(F)(F)F)cc(C(F)(F)F)c1)c1cnc(N2CCN(C(=O)C3CC3)CC2)cc1-c1ccccc1Cl', 8.18);
